Tested on: bronchospasm induced by histamine
Assay: bronchospasmolytic activity (Konzett and Roessler), bronchospasm induced by histamine
Format: in vivo, Dunkin-Hartley guinea-pig
Details: Cavia porcellus; intravenous; histamine-induced bronchospasm; read-out: Doses (ID50), Histamine
Counter-ions that a name gives are not always drawn.
reported_property: log10(ED50) (log10 of the value in µmol/kg)

{"compound": "O=C1CN(c2nc(NC3CC3)nc(C3CC3)n2)C1 [Compound 17]", "target_system": "bronchospasm induced by histamine", "log10(ED50)": -1.00}
{"compound": "O=S1(=O)CCN(c2nc(NC3CC3)nc(C3CC3)n2)CC1 [Compound 20]", "target_system": "bronchospasm induced by histamine", "log10(ED50)": -1.52}
{"compound": "CCc1nc(NC2CC2)nc(N2CC3CCC(C2)O3)n1 [Compound 10]", "target_system": "bronchospasm induced by histamine", "log10(ED50)": -1.00}
{"compound": "C1CCC(c2nc(NC3CC3)nc(N3CCOCC3)n2)C1 [Compound 8]", "target_system": "bronchospasm induced by histamine", "log10(ED50)": -1.00}
{"compound": "CCCc1nc(NC2CC2)nc(N2CC(O)C2)n1 [Compound 15]", "target_system": "bronchospasm induced by histamine", "log10(ED50)": -1.10}
{"compound": "CCCc1nc(NC2CC2)nc(N2CCC(O)CC2)n1 [Compound 5]", "target_system": "bronchospasm induced by histamine", "log10(ED50)": -1.22}
{"compound": "C1CN(c2nc(NC3CC3)nc(C3CC3)n2)CCO1.Cl [Compound 3, hydrochloride]", "target_system": "bronchospasm induced by histamine", "log10(ED50)": -1.52}
{"compound": "C1CC(c2nc(NC3CC3)nc(N3CCOCC3)n2)C1 [Compound 4]", "target_system": "bronchospasm induced by histamine", "log10(ED50)": -2.40}
{"compound": "CC(C)c1nc(NC2CC2)nc(N2CC3CCC(C2)O3)n1 [Compound 12]", "target_system": "bronchospasm induced by histamine", "log10(ED50)": -1.40}
{"compound": "OC1CN(c2nc(NC3CC3)nc(C3CC3)n2)C1 [Compound 13]", "target_system": "bronchospasm induced by histamine", "log10(ED50)": -1.00}
{"compound": "CCCc1nc(NC2CC2)nc(N(CCO)CCO)n1 [Compound 6]", "target_system": "bronchospasm induced by histamine", "log10(ED50)": -1.00}
{"compound": "O=S1(=O)CCN(c2nc(NC3CC3)nc(C3CCC3)n2)CC1 [Compound 26, hydrochloride]", "target_system": "bronchospasm induced by histamine", "log10(ED50)": -1.52}
{"compound": "OCCN(CCO)c1nc(NC2CC2)nc(C2CC2)n1 [Compound 7]", "target_system": "bronchospasm induced by histamine", "log10(ED50)": -0.70}
{"compound": "CC1(c2nc(NC3CC3)nc(N3CCOCC3)n2)CC1 [Compound 24]", "target_system": "bronchospasm induced by histamine", "log10(ED50)": -1.40}
{"compound": "COC1CN(c2nc(NC3CC3)nc(C3CC3)n2)C1 [Compound 14]", "target_system": "bronchospasm induced by histamine", "log10(ED50)": -1.05}
{"compound": "CCc1nc(NC2CC2)nc(N2CCOCC2)n1 [Compound 2]", "target_system": "bronchospasm induced by histamine", "log10(ED50)": -0.52}
{"compound": "CCCc1nc(NC2CC2)nc(N2CC3CCC(C2)O3)n1 [Compound 11]", "target_system": "bronchospasm induced by histamine", "log10(ED50)": -1.00}
{"compound": "CCCc1nc(NC2CC2)nc(N2CCOCC2)n1 [Compound 1]", "target_system": "bronchospasm induced by histamine", "log10(ED50)": -2.00}
{"compound": "C1CC1Nc1nc(C2CC2)nc(N2CC3CCC(C2)O3)n1 [Compound 16]", "target_system": "bronchospasm induced by histamine", "log10(ED50)": -2.05}
{"compound": "C1CN(c2nc(NC3CC3)nc(C3CC3)n2)CCS1 [Compound 18]", "target_system": "bronchospasm induced by histamine", "log10(ED50)": -2.52}
{"compound": "[O-][S+]1CCN(c2nc(NC3CC3)nc(C3CC3)n2)CC1 [Compound 19]", "target_system": "bronchospasm induced by histamine", "log10(ED50)": -1.70}
{"compound": "Cc1nc(NC2CC2)nc(N2CC3CCC(C2)O3)n1.Cl [Compound 9, hydrochloride]", "target_system": "bronchospasm induced by histamine", "log10(ED50)": -0.40}

###

System: cAMP in PMN granulocytes
Test: increase in the level of cAMP in PMN granulocytes
Assay type: cell-based, Rat
Settings: […]10^-6 mole per liter; PGE1 10^-6 mole/liter; control 4.3
Rule: Amount of cAMP produced under 20 picomoles per 10^7 cells gives false, otherwise true.

{"compound": "CCCc1nc(NC2CC2)nc(N2CC3CCC(C2)O3)n1 [Compound 11]", "category": "false"}
{"compound": "CCCc1nc(NC2CC2)nc(N2CCC(O)CC2)n1 [Compound 5]", "category": "false"}
{"compound": "C1CN(c2nc(NC3CC3)nc(C3CC3)n2)CCO1.Cl [Compound 3]", "category": "true"}
{"compound": "CC(C)c1nc(NC2CC2)nc(N2CC3CCC(C2)O3)n1 [Compound 12]", "category": "false"}
{"compound": "CCCc1nc(NC2CC2)nc(N(CCO)CCO)n1 [Compound 6]", "category": "false"}
{"compound": "C1CC(c2nc(NC3CC3)nc(N3CCOCC3)n2)C1 [Compound 4]", "category": "false"}
{"compound": "Cn1c(=O)c2[nH]cnc2n(C)c1=O [theophylline, reference compound]", "category": "false"}
{"compound": "CCCc1nc(NC2CC2)nc(N2CCOCC2)n1 [Compound 1]", "category": "true"}
{"compound": "OCCN(CCO)c1nc(NC2CC2)nc(C2CC2)n1 [Compound 7]", "category": "false"}

###

Assay: toxicity, Irwin's test
Type: in vivo
Settings: i.p.; death of two animals out of three within 48 hours
reported_property: Lethal dose (mg/kg)

{"smiles_text": "OC1CN(c2nc(NC3CC3)nc(C3CC3)n2)C1", "reported_property": "Lethal dose", "result_value": 247.3}
{"smiles_text": "C1CC1Nc1nc(C2CC2)nc(N2CC3CCC(C2)O3)n1", "reported_property": "Lethal dose", "result_value": 194}
{"smiles_text": "C1CN(c2nc(NC3CC3)nc(C3CC3)n2)CS1", "reported_property": "Lethal dose", "result_value": 263}
{"smiles_text": "C1CC(c2nc(NC3CC3)nc(N3CCOCC3)n2)C1", "reported_property": "Lethal dose", "result_value": 165}
{"smiles_text": "CCc1nc(NC2CC2)nc(N2CC3CCC(C2)O3)n1", "reported_property": "Lethal dose", "result_value": 311.8}

###

Property: minimal effective concentration; scope: individual compounds
Tested on: anaphylactic release of histamine, guinea-pig lung sections
Assay: inhibition of the anaphylactic release of histamine (proper effect)
Assay type: cell-based, Dunkin-Hartley guinea-pigs
Conditions: Cavia porcellus, in vitro, read-out: Minimum inhibitory dose (MID)

{"compound": "CCCc1nc(NC2CC2)nc(N2CCC(O)CC2)n1 [Compound 5]", "target_system": "anaphylactic release of histamine, guinea-pig lung sections", "minimal effective concentration, µM": 0.32}
{"compound": "C1CCC(c2nc(NC3CC3)nc(N3CCOCC3)n2)C1 [Compound 8]", "target_system": "anaphylactic release of histamine, guinea-pig lung sections", "minimal effective concentration, µM": 1}
{"compound": "C1CC(c2nc(NC3CC3)nc(N3CCOCC3)n2)C1 [Compound 4]", "target_system": "anaphylactic release of histamine, guinea-pig lung sections", "minimal effective concentration, µM": 0.32}
{"compound": "[O-][S+]1CCN(c2nc(NC3CC3)nc(C3CC3)n2)CC1 [Compound 19]", "target_system": "anaphylactic release of histamine, guinea-pig lung sections", "minimal effective concentration, µM": 1}
{"compound": "CC1CC1c1nc(NC2CC2)nc(N2CCOCC2)n1.Cl (centres unmarked) [Compound 25, hydrochloride]", "target_system": "anaphylactic release of histamine, guinea-pig lung sections", "minimal effective concentration, µM": 0.032}

###

System: anaphylactic release of histamine, guinea-pig lung sections
Experiment: potentiation of the inhibition of anaphylactic histamine release by isoprenaline
Type: cell-based, Dunkin-Hartley guinea-pigs
Details: with isoprenaline 10^-7 mole per liter
Structures can show the parent of a compound that is named as a salt.
Property: Minimum potentiating dose (MPD); scope: individual molecules

{"molecule": "O=S1(=O)CCN(c2nc(NC3CC3)nc(C3CC3)n2)C1", "target_system": "anaphylactic release of histamine, guinea-pig lung sections", "unit_info": "µmol/L", "Minimum potentiating dose (MPD)": 0.032}
{"molecule": "C1CN(c2nc(NC3CC3)nc(C3CC3)n2)CS1", "target_system": "anaphylactic release of histamine, guinea-pig lung sections", "unit_info": "µmol/L", "Minimum potentiating dose (MPD)": 0.32}
{"molecule": "CCCc1nc(NC2CC2)nc(N2CCOCC2)n1", "target_system": "anaphylactic release of histamine, guinea-pig lung sections", "unit_info": "µmol/L", "Minimum potentiating dose (MPD)": 0.32}
{"molecule": "CCCc1nc(NC2CC2)nc(N2CC3CCC(C2)O3)n1", "target_system": "anaphylactic release of histamine, guinea-pig lung sections", "unit_info": "µmol/L", "Minimum potentiating dose (MPD)": 0.32}
{"molecule": "CCc1nc(NC2CC2)nc(N2CCOCC2)n1", "target_system": "anaphylactic release of histamine, guinea-pig lung sections", "unit_info": "µmol/L", "Minimum potentiating dose (MPD)": 3.2}
{"molecule": "C1CN(c2nc(NC3CC3)nc(C3CC3)n2)CCS1", "target_system": "anaphylactic release of histamine, guinea-pig lung sections", "unit_info": "µmol/L", "Minimum potentiating dose (MPD)": 1.0}
{"molecule": "[O-][S+]1CCN(c2nc(NC3CC3)nc(C3CC3)n2)CC1", "target_system": "anaphylactic release of histamine, guinea-pig lung sections", "unit_info": "µmol/L", "Minimum potentiating dose (MPD)": 0.1}
{"molecule": "CC(C)c1nc(NC2CC2)nc(N2CC3CCC(C2)O3)n1", "target_system": "anaphylactic release of histamine, guinea-pig lung sections", "unit_info": "µmol/L", "Minimum potentiating dose (MPD)": 0.1}
{"molecule": "Cc1nc(NC2CC2)nc(N2CC3CCC(C2)O3)n1.Cl", "target_system": "anaphylactic release of histamine, guinea-pig lung sections", "unit_info": "µmol/L", "Minimum potentiating dose (MPD)": 3.2}
{"molecule": "CC1CC1c1nc(NC2CC2)nc(N2CCOCC2)n1.Cl (stereo not drawn)", "target_system": "anaphylactic release of histamine, guinea-pig lung sections", "unit_info": "µmol/L", "Minimum potentiating dose (MPD)": 0.032}
{"molecule": "O=S1(=O)CCN(c2nc(NC3CC3)nc(C3CC3)n2)CC1", "target_system": "anaphylactic release of histamine, guinea-pig lung sections", "unit_info": "µmol/L", "Minimum potentiating dose (MPD)": 0.32}
{"molecule": "O=C1CN(c2nc(NC3CC3)nc(C3CC3)n2)C1", "target_system": "anaphylactic release of histamine, guinea-pig lung sections", "unit_info": "µmol/L", "Minimum potentiating dose (MPD)": 1.0}
{"molecule": "C1CC(c2nc(NC3CC3)nc(N3CCOCC3)n2)C1", "target_system": "anaphylactic release of histamine, guinea-pig lung sections", "unit_info": "µmol/L", "Minimum potentiating dose (MPD)": 0.1}
{"molecule": "C1CN(c2nc(NC3CC3)nc(C3CC3)n2)CCO1.Cl", "target_system": "anaphylactic release of histamine, guinea-pig lung sections", "unit_info": "µmol/L", "Minimum potentiating dose (MPD)": 0.32}
{"molecule": "CCc1nc(NC2CC2)nc(N2CC3CCC(C2)O3)n1", "target_system": "anaphylactic release of histamine, guinea-pig lung sections", "unit_info": "µmol/L", "Minimum potentiating dose (MPD)": 0.32}
{"molecule": "Cn1c(=O)c2[nH]cnc2n(C)c1=O [theophylline, reference compound]", "target_system": "anaphylactic release of histamine, guinea-pig lung sections", "unit_info": "µmol/L", "Minimum potentiating dose (MPD)": 1000.0}
{"molecule": "O=S1(=O)CCN(c2nc(NC3CC3)nc(C3CCC3)n2)CC1 [Compound 26, hydrochloride]", "target_system": "anaphylactic release of histamine, guinea-pig lung sections", "unit_info": "µmol/L", "Minimum potentiating dose (MPD)": 0.32}
{"molecule": "C1CCC(c2nc(NC3CC3)nc(N3CCOCC3)n2)C1", "target_system": "anaphylactic release of histamine, guinea-pig lung sections", "unit_info": "µmol/L", "Minimum potentiating dose (MPD)": 10.0}
{"molecule": "C1CC1Nc1nc(C2CC2)nc(N2CC3CCC(C2)O3)n1", "target_system": "anaphylactic release of histamine, guinea-pig lung sections", "unit_info": "µmol/L", "Minimum potentiating dose (MPD)": 0.032}
{"molecule": "OCCN(CCO)c1nc(NC2CC2)nc(C2CC2)n1", "target_system": "anaphylactic release of histamine, guinea-pig lung sections", "unit_info": "µmol/L", "Minimum potentiating dose (MPD)": 1.0}
{"molecule": "CCCc1nc(NC2CC2)nc(N(CCO)CCO)n1", "target_system": "anaphylactic release of histamine, guinea-pig lung sections", "unit_info": "µmol/L", "Minimum potentiating dose (MPD)": 1.0}
